Reference source for all entries: patent US20250051321A1

experiment: Pharmacokinetic test in mice; format: in vivo, ICR mice; conditions: male, ICR, mouse, plasma, 1 mg/kg, IV - 1 mpk
Consider the following molecules; for each one, report its AUC.
One number for each entry, in ng·h/mL.

Take a look at these entries with their results.
CN(c1nc(-c2ccc(F)cc2)c(C#N)s1)c1c2c(nc3c(F)cc(N4CC5(CN(C(=O)C(C)(C)O)C5)C4)cc13)[C@](C)(O)CC2 (single isomer, unassigned); 6770
CN(c1nc(-c2ccc(F)cc2)c(C#N)s1)c1c2c(nc3c(F)cc(N4CC5(CN(C(=O)[C@@H]6CCOC6)C5)C4)cc13)CC2; 2080
CN(c1nc(-c2ccc(F)cc2)c(C#N)s1)c1c2c(nc3c(F)cc(N4CC5(CN(C(=O)C(C)(C)O)C5)C4)cc13)CC2; 14100

// each listed molecule needs a value for AUC
1. CN(c1nc(-c2ccc(F)cc2)c(C#N)s1)c1c2c(nc3c(F)cc(N4CC5(CN(C(=O)C(C)(C)O)C5)C4)cc13)[C@@H](O)CC2 (single isomer, unassigned)
2. Cc1cc(N2CC3(CN(C(=O)C(C)(C)O)C3)C2)nc2c(N(C)c3nc(-c4ccc(F)cc4)c(C#N)s3)c3c(nc12)CC3
3. CN(c1nc(-c2ccc(F)cc2)c(C#N)s1)c1c2c(nc3c(F)cc(N4CC5(CN(C(=O)[C@H]6CCOC6)C5)C4)cc13)COC2

Reply:
1: 5540; 2: 12600; 3: 3700

---

assay: Pharmacokinetic test in mice; format: in vivo, ICR mice; details: male, ICR, mouse, plasma, 5 mg/kg, PO - 5 mpk vs IV - 1 mpk
Classification field: enter y for bioavailability values not below 60%, n for values below it.

Use these answered entries as a reference point.
CN(c1nc(-c2ccc(F)cc2)c(C#N)s1)c1c2c(nc3c(F)cc(N4CC5(CN(C(=O)C(C)(C)O)C5)C4)cc13)[C@](C)(O)CC2 (single isomer, unassigned); n
Cc1cc(N2CC3(CN(C(=O)C(C)(C)O)C3)C2)nc2c(N(C)c3nc(-c4ccc(F)cc4)c(C#N)s3)c3c(nc12)CC3; n
CN(c1nc(-c2ccc(F)cc2)c(C#N)s1)c1c2c(nc3c(F)cc(N4CC5(CN(C(=O)[C@@H]6CCOC6)C5)C4)cc13)CC2; y

Ask: Quick check: does CN(c1nc(-c2ccc(F)cc2)c(C#N)s1)c1c2c(nc3c(F)cc(N4CC5(CN(C(=O)C(C)(C)O)C5)C4)cc13)CC2 have bioavailability greater than or equal to 60%?
Reply: y

---

assay: Pharmacokinetic test in mice; type: in vivo, ICR mice; conditions: male, ICR, mouse, plasma, 1 mg/kg, IV - 1 mpk, read-out: CL (mL/min/kg, IV)
measurement-label: clearance
Please answer using a numeric value trailed by its unit.

Study these solved cases before continuing.
CN(c1nc(-c2ccc(F)cc2)c(C#N)s1)c1c2c(nc3c(F)cc(N4CC5(CN(C(=O)[C@@H]6CCOC6)C5)C4)cc13)CC2; 8 mL/min/kg
CN(c1nc(-c2ccc(F)cc2)c(C#N)s1)c1c2c(nc3c(F)cc(N4CC5(CN(C(=O)C(C)(C)O)C5)C4)cc13)[C@@H](O)CC2 (single isomer, unassigned); 3.07 mL/min/kg
CN(c1nc(-c2ccc(F)cc2)c(C#N)s1)c1c2c(nc3c(F)cc(N4CC5(CN(C(=O)C(C)(C)O)C5)C4)cc13)CC2; 1.21 mL/min/kg
Cc1cc(N2CC3(CN(C(=O)C(C)(C)O)C3)C2)nc2c(N(C)c3nc(-c4ccc(F)cc4)c(C#N)s3)c3c(nc12)CC3; 1.39 mL/min/kg
CN(c1nc(-c2ccc(F)cc2)c(C#N)s1)c1c2c(nc3c(F)cc(N4CC5(CN(C(=O)C(C)(C)O)C5)C4)cc13)[C@](C)(O)CC2 (single isomer, unassigned); 2.51 mL/min/kg

Here is the next item to consider.
Ask: Which value of clearance has been reported for CN(c1nc(-c2ccc(F)cc2)c(C#N)s1)c1c2c(nc3c(F)cc(N4CC5(CN(C(=O)[C@H]6CCOC6)C5)C4)cc13)COC2 in the records?
Reply: 4.59 mL/min/kg
